- TESTED_SYSTEM: NspS-MbaA (Vibrio cholerae)
- Sequence (Q9KU25 whole entry, looked up): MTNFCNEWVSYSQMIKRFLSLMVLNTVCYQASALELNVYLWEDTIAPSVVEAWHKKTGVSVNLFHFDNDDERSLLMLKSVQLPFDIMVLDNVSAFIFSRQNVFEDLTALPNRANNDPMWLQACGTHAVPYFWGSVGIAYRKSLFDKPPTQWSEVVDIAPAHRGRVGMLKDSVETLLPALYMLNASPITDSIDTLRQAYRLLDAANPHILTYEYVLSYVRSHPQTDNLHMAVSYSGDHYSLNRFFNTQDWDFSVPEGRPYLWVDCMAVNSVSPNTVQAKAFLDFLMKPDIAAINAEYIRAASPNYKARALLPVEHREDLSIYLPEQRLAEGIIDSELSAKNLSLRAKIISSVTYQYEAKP
- PARTICULARS: ΔnspC ΔpotD1 V. cholerae cells (no norspermidine synthesis or import); M9 minimal medium; activates MbaA diguanylate cyclase output via NspS
READOUT: EC50

> print(dat)
                    compound  assay.result
1  NCCCNCCCN [norspermidine]     1 to 5 nM

Ref: paper PMC8967002
